Molecular target: human plasma proteins
Assay: plasma protein binding, equilibrium dialysis, LC-MS/MS
Non-standard residues stand in square brackets, D forms with d. Groups on a side chain read outwards from the residue. Primed or numbered codes have the meaning given here. No end group written: not given here. *: point of attachment. DOTA = O=C(O)CN1CCN(CC(=O)O)CCN(CC(=O)*)CCN(CC(=O)O)CC1; Butanoyl(4-(4-I-phenyl)) = O=C(CCCc1ccc(I)cc1)*; Butanoyl(4-(4-MePh)) = Cc1ccc(CCCC(=O)*)cc1; FB = fluorobenzaldehyde oxime; PEG3′ = PEG spacer, 3 units
Plasma % Bound vs 50%: at or above is Satisfied, below is Not satisfied.

{"binder": "Fol-[dH][dS][dH][dT][dA]K(Butanoyl(4-(4-MePh)))K(DOTA) (not fully specified (residue 5, bridges); printed as folate-hshta-PEG3-Lys(MPBA)-Lys(DOTA)) [Compound #2809, folate-hshta-PEG3-Lys(MPBA)-Lys(DOTA) (SEQ ID NO:6)]", "cat": "Satisfied"}
{"binder": "Fol-[dH][dS][dH][dT][dA]K(Butanoyl(4-(4-MePh)))GFK(DOTA) (not fully specified (residue 5, bridges)) [Compound #6305, folate-hshta-Lys(MPBA)-Gly-Phe-Lys(DOTA) (SEQ ID NO:6)]", "cat": "Satisfied"}
{"binder": "Fol-[dH][dS][dH][dT][dA]K(DOTA) (not fully specified (residue 5, bridges); printed as folate-hshta-PEG3-Lys(DOTA)) [Compound #1189, Fol-hshta-PEG3-Lys(DOTA)]", "cat": "Not satisfied"}

Enquiry: Please indicate if the recorded Plasma % Bound for Fol-[dH][dS][dH][dT][dA]GFK(DOTA) (not fully specified (residue 5, bridges)) [Compound #6307, Fol-hshta-PEG3-Gly-Phe-Lys(DOTA)] meets or exceeds 50%.
Return: Not satisfied

Enquiry: Please indicate if the recorded Plasma % Bound for Fol-[dH][dS][dH][dT][dA]K(Butanoyl(4-(4-MePh)))GFK([PEG3′-DOTA]) (not fully specified (residue 5, bridges)) [Compound #3302, Fol-hshta-Lys(4-MPBA)-Gly-Phe-Lys(PEG3-DOTA)] meets or exceeds 50%.
Return: Satisfied

Enquiry: Please indicate if the recorded Plasma % Bound for Fol-[dH][dS][dH][dT][dA]K(Butanoyl(4-(4-I-phenyl)))GFK(DOTA) (not fully specified (residue 5, bridges)) [Compound #1307, folate-hshta-Lys(IPBA)-Gly-Phe-Lys(DOTA) (SEQ ID NO:6)] meets or exceeds 50%.
Return: Satisfied

Enquiry: Please indicate if the recorded Plasma % Bound for [dH][dS][dH][dT][dA]GFK(DOTA) (not fully specified (residue 5, N-terminus, bridges); printed as folate-hshta-Gly-Phe-Lys(DOTA)) [Compound #7327, folate-hshta-Gly-Phe-Lys(DOTA) (SEQ ID NO:6)] meets or exceeds 50%.
Return: Not satisfied

Enquiry: Please indicate if the recorded Plasma % Bound for Fol-[dH][dS][dH][dT][dA]K(FB) (not fully specified (residue 5, bridges)) [Compound #2, Fol-hshta-PEG3-Lys(FB)] meets or exceeds 50%.
Return: Not satisfied

Enquiry: Please indicate if the recorded Plasma % Bound for Fol-[dH][dS][dH][dT][dA]K(Butanoyl(4-(4-I-phenyl)))MVK(DOTA) (not fully specified (residue 5, bridges)) [Compound #1306, folate-hshta-Lys(IPBA)-M-V-Lys(DOTA) (SEQ ID NO:6)] meets or exceeds 50%.
Return: Satisfied
